measured-target: human TLR7 (Homo sapiens, UniProt Q9NYK1)
Sequence (Q9NYK1 27-1049): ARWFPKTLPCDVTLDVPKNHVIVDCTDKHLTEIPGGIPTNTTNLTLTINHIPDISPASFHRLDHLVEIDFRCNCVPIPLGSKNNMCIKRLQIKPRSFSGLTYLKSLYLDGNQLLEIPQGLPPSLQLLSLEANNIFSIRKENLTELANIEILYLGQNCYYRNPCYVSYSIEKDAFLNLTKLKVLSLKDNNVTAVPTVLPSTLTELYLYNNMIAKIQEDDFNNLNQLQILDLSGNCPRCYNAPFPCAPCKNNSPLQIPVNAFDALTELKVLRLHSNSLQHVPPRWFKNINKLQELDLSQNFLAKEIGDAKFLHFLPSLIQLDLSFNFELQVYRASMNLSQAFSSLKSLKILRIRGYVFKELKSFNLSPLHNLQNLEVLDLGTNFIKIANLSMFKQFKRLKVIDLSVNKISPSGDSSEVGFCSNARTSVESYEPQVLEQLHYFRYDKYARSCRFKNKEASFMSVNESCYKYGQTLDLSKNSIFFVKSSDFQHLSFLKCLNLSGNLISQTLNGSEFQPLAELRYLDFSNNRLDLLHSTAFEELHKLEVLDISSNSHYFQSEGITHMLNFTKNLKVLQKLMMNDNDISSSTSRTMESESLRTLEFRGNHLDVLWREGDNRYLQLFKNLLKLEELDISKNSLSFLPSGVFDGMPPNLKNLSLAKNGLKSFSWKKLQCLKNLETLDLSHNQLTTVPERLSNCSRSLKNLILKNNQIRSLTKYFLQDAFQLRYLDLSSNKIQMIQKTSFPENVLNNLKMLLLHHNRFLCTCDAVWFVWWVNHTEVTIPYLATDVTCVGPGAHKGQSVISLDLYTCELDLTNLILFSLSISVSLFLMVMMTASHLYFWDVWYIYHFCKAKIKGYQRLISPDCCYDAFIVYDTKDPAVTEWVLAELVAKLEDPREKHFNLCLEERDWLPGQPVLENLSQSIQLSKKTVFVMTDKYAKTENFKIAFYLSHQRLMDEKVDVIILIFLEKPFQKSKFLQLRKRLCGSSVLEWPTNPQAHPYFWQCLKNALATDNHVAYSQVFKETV
protocol-text: TLR7 inhibition reporter assay (HEK-Blue SEAP reporter, gardiquimod stimulation)
test-conditions: HEK-Blue cells overexpressing human TLR7, SEAP reporter, gardiquimod 7.5 μM, 22 hour incubation
pIC50: −log10 of the molar value.
test-readout: pIC50

>>> result_number("Cc1cc(-c2[nH]c3ccc(C4CCN(C(=O)CN(C)C)CC4)cc3c2C(C)C)nn(C)c1=O")
7.90

(1) Cc1cc(-c2[nH]c3ccc(C4CCN(C(C)c5cnn(C)c5)CC4)cc3c2C(C)C)cn(C)c1=O (stereo not drawn)
(2) Cc1cc(-c2[nH]c3ccc(C4CCN(C5CCS(=O)(=O)C5)CC4)cc3c2C(C)C)cn(C)c1=O (stereo not drawn)
Determine, for 1 and 2 , which has the greater value of pIC50. Identify your pick by its label.
2
